Property: Kd; scope: individual sequences
target: pre-miR16-1; experiment: Dissociation constant by competitive fluorescence anisotropy with rhodamine-rev peptide probe; format: binding; settings: Table 3, first generation peptides, 20° C., HEPES pH 7.5; read-out: Kd value with pre-miR16-1
Please give a number only; it is taken to be in nM.

IN: Give the measured Kd of LKKLLKLWKKLLKLAG [Peptide 1e, Ac-LKKLLKLWKKLLKLAG] .
OUT: 27

IN: Moving on to LKKLLKLLKKLWKLAG [Peptide 1g, Ac-LKKLLKLLKKLWKLAG]
OUT: 0.56

IN: Can you check LKKLLKLLKKLLKWAG [Peptide 1h, Ac-LKKLLKLLKKLLKWAG] next?
OUT: 0.4

IN: Another sequence: LKKLWKLLKKLLKLAG [Peptide 1c, Ac-LKKLWKLLKKLLKLAG]
OUT: 0.56

IN: Would you mind doing LKKLLKWLKKLLKLAG [Peptide 1d, Ac-LKKLLKWLKKLLKLAG] as well?
OUT: 1.8

IN: Quick one: WKKLLKLLKKLLKLAG [Peptide 1a, Ac-WKKLLKLLKKLLKLAG]
OUT: 0.42

Further cases:
IN: So what does the record say about Kd for LKKLLKLLKKWLKLAG [Peptide 1f, Ac-LKKLLKLLKKWLKLAG] ?
OUT: 0.48

IN: Now the same for LKKWLKLLKKLLKLAG [Peptide 1b, Ac-LKKWLKLLKKLLKLAG]
OUT: 1.2

IN: Another sequence to check: LKKLLKLLKKLLKLAG [Peptide 1, Ac-LKKLLKLLKKLLKLAG]
OUT: 12

----------
molecular target: pre-let7a-1; assay: Dissociation constant by competitive fluorescence anisotropy with rhodamine-rev peptide probe; type: binding; conditions: Table 6; read-out: Kd pre-let7a-1
Mark Criterion met only for Kd values smaller than 0.2 nM; exact matches and larger values are Criterion not met.

IN: Would you kindly verify if Kd of WKKLLKLLKKLLKWAG [Peptide 2e, Ac-WKKLLKLLKKLLKWAG, 16] is strictly less than 0.2 nM?
OUT: Criterion not met

IN: What would you report for LKKLWKLLKKLLKWAG [Peptide 2f, Ac-LKKLWKLLKKLLKWAG, 17] ?
OUT: Criterion not met

IN: Further, for LKKLLKLLKKWLKWAG [Peptide 2i, Ac-LKKLLKLLKKWLKWAG, 20] ?
OUT: Criterion not met

IN: Same thing, different sequence: WKKLLKLLKKWLKLAG [Peptide 2c, Ac-WKKLLKLLKKWLKLAG, 14]
OUT: Criterion met

IN: Now this one: WKKLLKLLKKLWKLAG [Peptide 2d, Ac-WKKLLKLLKKLWKLAG, 15]
OUT: Criterion not met

Continuing:
IN: Answer whether the sequence LKKLLKLLKKWWKLAG [Peptide 2h, Ac-LKKLLKLLKKWWKLAG, 19] has Kd strictly less than 0.2 nM
OUT: Criterion not met

IN: Same thing, different sequence: LKKLLKWLKKLLKWAG [Peptide 2g, Ac-LKKLLKWLKKLLKWAG, 18]
OUT: Criterion not met

IN: Same question, WKKLWKLLKKLLKLAG [Peptide 2a, Ac-WKKLWKLLKKLLKLAG, 12] this time
OUT: Criterion not met

IN: Another sequence to check: LKKLLKLLKKLWKWAG [Peptide 2j, Ac-LKKLLKLLKKLWKWAG, 21]
OUT: Criterion not met

IN: WKKLLKWLKKLLKLAG [Peptide 2b, Ac-WKKLLKWLKKLLKLAG, 13] ?
OUT: Criterion met

----------
molecular target: pre-miR16-1; test: Dissociation constant by competitive fluorescence anisotropy with rhodamine-rev peptide probe; format: binding; conditions: Table 5, second generation peptides; read-out: Kd value against pre-miR16-1
Checkbox rule: Kd lower than 0.5 nM = Y; Kd not lower than 0.5 nM = N.

Field: example entries. Status: answers known.
IN: Hi there! Is Kd for WKKLWKLLKKLLKLAG [Peptide 2a, Ac-WKKLWKLLKKLLKLAG, 12] below 0.5 nM, do you know?
OUT: Y

IN: Please do the same for LKKLLKWLKKLLKWAG [Peptide 2g, Ac-LKKLLKWLKKLLKWAG, 18] as well.
OUT: N

IN: Again, but for WKKLLKWLKKLLKLAG [Peptide 2b, Ac-WKKLLKWLKKLLKLAG, 13]
OUT: Y

***
IN: Kd under 0.5 nM? Item: WKKLLKLLKKLLKWAG [Peptide 2e, Ac-WKKLLKLLKKLLKWAG, 16]
OUT: Y

IN: Another sequence: LKKLLKLLKKWLKWAG [Peptide 2i, Ac-LKKLLKLLKKWLKWAG, 20]
OUT: Y

IN: Another sequence to check: WKKLLKLLKKLWKLAG [Peptide 2d, Ac-WKKLLKLLKKLWKLAG, 15]
OUT: N

----------
system: recombinant human Dicer processing pre-let7a-1; assay: Dicer activity assay in the presence of peptide, substrate pre-let7a-1; type: biochemical; conditions: FIG. 3, concentration dependence; pre-miRNA substrate not named; read-out: EC50 of initial velocity of Dicer in processing pre-miRNA
reported.property: pEC50
API: returns pEC50 as number; meaning -log10 of concentration in mol/L.

IN: Given the entry WKKLLKWLKKLLKLAG [Peptide 2b, Ac-WKKLLKWLKKLLKLAG, 13] , report its measured pEC50.
OUT: 6.03

----------
target: HBV (hairpin RNA); test: Dissociation constant by competitive fluorescence anisotropy with rhodamine-rev peptide probe; type: binding; details: Table 6
pKd: −log10 of the molar value.
Could you label it fulfilled if measured pKd is 9 or higher, and not fulfilled otherwise?

Would you please look over these solved cases?
IN: Is pKd for WKKLLKLLKKLLKWAG [Peptide 2e, Ac-WKKLLKLLKKLLKWAG, 16] at or above 9?
OUT: fulfilled

IN: Further, for LKKLWKLLKKLLKWAG [Peptide 2f, Ac-LKKLWKLLKKLLKWAG, 17] ?
OUT: fulfilled

IN: Similarly, WKKLLKLLKKWLKLAG [Peptide 2c, Ac-WKKLLKLLKKWLKLAG, 14] ?
OUT: fulfilled

IN: Subsequent entry: LKKLLKLLKKLWKWAG [Peptide 2j, Ac-LKKLLKLLKKLWKWAG, 21]
OUT: fulfilled

We now examine a further sequence.
IN: Dear colleague, could you confirm whether LKKLLKLLKKWWKLAG [Peptide 2h, Ac-LKKLLKLLKKWWKLAG, 19] has pKd at or above 9?
OUT: not fulfilled

----------
molecular target: pre-let7a-1; assay: Dissociation constant by competitive fluorescence anisotropy with rhodamine-rev peptide probe; format: binding; conditions: Table 5, second generation peptides; read-out: Kd value against pre-let7a-1
Quick reference for pKd among some sequences
Scale for pKd: -log10 of concentration given in mol/L; no unit attached.

IN: Which pKd reading was recorded for the sequence WKKLWKLLKKLLKLAG [Peptide 2a, Ac-WKKLWKLLKKLLKLAG, 12] ?
OUT: 9.64

More entries:
IN: Record request: pKd value, item WKKLLKWLKKLLKLAG [Peptide 2b, Ac-WKKLLKWLKKLLKLAG, 13]
OUT: 10.17

IN: Could you do the same for LKKLLKLLKKLWKWAG [Peptide 2j, Ac-LKKLLKLLKKLWKWAG, 21] , please?
OUT: 9.43

IN: Same for LKKLLKWLKKLLKWAG [Peptide 2g, Ac-LKKLLKWLKKLLKWAG, 18]
OUT: 9.02

IN: One more sequence: LKKLWKLLKKLLKWAG [Peptide 2f, Ac-LKKLWKLLKKLLKWAG, 17]
OUT: 9.05

----------
Biological target: pre-miR16-1
Assay: Dissociation constant by competitive fluorescence anisotropy with rhodamine-rev peptide probe
Format: binding
Settings: Table 5, second generation peptides; read-out: Kd value against pre-miR16-1
Method: The binding affinity between the peptide synthesized in <Example 1> and pre-miRNA from <Example 2> were measured by fluorescence anisotropy using competitive binding method. A rev peptide with rhodamine attached at the N-terminal was used as a fluorescent probe and LS-55 luminescence spectrometer from Perkin-Elmer was use for analysis. […] The dissociation constant was determined according to the Mathematical Formula 1 and using Kaledia graph. […]
pKd: −log10 of the molar value.
Tick Met if pKd is 9 or greater. Tick Not met if pKd is less than 9.

Here are 3 sequences together with their reported answers.
IN: Answer whether pKd of LKKLLKLLKKWWKLAG [Peptide 2h, Ac-LKKLLKLLKKWWKLAG, 19] is greater than or equal to 9.
OUT: Not met

IN: Now consider WKKLLKLLKKWLKLAG [Peptide 2c, Ac-WKKLLKLLKKWLKLAG, 14] and answer again.
OUT: Met

IN: Okay, and LKKLWKLLKKLLKWAG [Peptide 2f, Ac-LKKLWKLLKKLLKWAG, 17] ?
OUT: Not met

Next:
IN: Dear colleague, could you confirm whether LKKLLKLLKKLLKLAG [Peptide 1, Ac-LKKLLKLLKKLLKLAG] has pKd at or above 9?
OUT: Not met

IN: Now consider LKKLLKLLKKLWKWAG [Peptide 2j, Ac-LKKLLKLLKKLWKWAG, 21] and answer again.
OUT: Met

Where do these numbers come from? They come from patent US20110230367A1.
